# Target system: full-length human GLP-1R with an N-terminal FLAG tag (human, UniProt P43220 24-463)
# Protocol details: cell-based or functional assay
Starred links: 1 amine or outer side, 2 acyl side, 3 side chain; linkers in the order of their positions; H or OH if unused. Non-standard residues stand in square brackets, D forms with d. Groups on a side chain read outwards from the residue. No end group written: not given here. *: point of attachment. G2E3 = linker of 2 Gly and 3 Glu (read GGEEE); C15 diacid = O=C(O)CCCCCCCCCCCCCC(=O)*; γGlu = O=C(O)[C@H](CCC(=O)[*:2])N[*:1]; NMeY = CN[C@@H](Cc1ccc(O)cc1)C(=O)O; AEEA = NCCOCCOCC(=O)O; Aib = CC(C)(N)C(=O)O
The label depends only on Human GLP1R cAMP HEK293T EC50: true if it is at least 400 nM, false if it is smaller.

Take a look at these entries with their results.
Binder	Classification
[NMeY][Aib]EGTFISDYSIALDR[Aib]K([G5gE-C15 diacid])Q[Aib]DFVNWLLAQRPSSGAPPPS-NH2 [Compound 73]	true
[NMeY][Aib]EGTFISDYSIAK([G4-γGlu-C15 diacid])DR[Aib]AQ[Aib]NFVNWLLAQSPSSGAPPPS-NH2 [Compound 78]	false
Me-Y[Aib]EGTFISDYSIAKDR[Aib]AQ[Aib]NFVNWLLAQRPSSGAPPPS-OH (not fully specified (residues 1, 14)) [Compound 147]	false
[NMeY][Aib]EGTFISDYSIAK([G2E3-C15 diacid])DR[Aib]AQ[Aib]NFVNWLLAQK-NH2 [Compound 30]	true
[NMeY][Aib]EGTFISDYSIALDRIHQK([AEEA-AEEA-γGlu-C15 diacid])NFVNWLLAQK (also: Me-Tyr methyl position not given here) [Compound 5]	true
[NMeY][Aib]EGTFISDYSIALDR[Aib]AQ[Aib]KFVNWLLAQRPSSGAPPPS-NH2 (not fully specified (residue 21)) [Compound 130]	false

Kindly consider the entry below.
Request: Could you please find out whether [NMeY][Aib]EGTFISDYSIAK([G5-γGlu-C15 diacid])DR[Aib]AQ[Aib]NFVNWLLAQSPSSGAPPPS-NH2 [Compound 82] has Human GLP1R cAMP HEK293T EC50 that meets 400 nM or exceeds it?
Result: false
